Entry source: PubChem BioAssay (NCI)

protocol-text: NCI Yeast Anticancer Drug Screen. Data for the sgs1 mgt1 strain (AID 161)
condition-parameters: S. cerevisiae sgs1 mgt1 strain, at 50.0 µM (retest, dose inferred, filed as 5.0)
Compounds without any hit were thinned out: in the full panel of roughly 79,000, 15% have a hit. Activity calls are given as the source filed them. Cut-off read from the data, not from the text of the source: active = growth inhibition above about 70%; inactive = the rest.
Outcomes: active, inactive

[
  {
    "molecule": "COc1ccc(/C=C2/C(=O)ON=C2C)cc1OC",
    "assigned-class": "inactive"
  },
  {
    "molecule": "CN(CN(C)N=Nc1ccc(Cl)cc1)CN(C)N=Nc1ccc(Cl)cc1",
    "assigned-class": "inactive"
  },
  {
    "molecule": "CCCCCC(C)(C)N=C=S",
    "assigned-class": "inactive"
  },
  {
    "molecule": "COC(=O)c1ccccc1NC(=O)C(=O)Cc1nc2c3c(ccc2[nH]c1=O)C(=O)c1ccccc1C3=O",
    "assigned-class": "active"
  },
  {
    "molecule": "COC(=O)CS(=O)(=O)CCS(=O)(=O)CC(=O)OC",
    "assigned-class": "inactive"
  },
  {
    "molecule": "OCC(O)C(O)C(O)/C=N\\Nc1ccccc1 (configuration not stated)",
    "assigned-class": "inactive"
  },
  {
    "molecule": "Cc1ccc([N+](=O)[O-])cc1Cl",
    "assigned-class": "inactive"
  },
  {
    "molecule": "CNCC(OB(c1ccccc1)c1ccccc1)c1ccccc1 (configuration not stated)",
    "assigned-class": "active"
  },
  {
    "molecule": "Cc1ccc(NC(=O)Cc2nc3ccccc3s2)c(C)c1",
    "assigned-class": "active"
  },
  {
    "molecule": "CC(OC(=O)Nc1cccc(Cl)c1)c1ccccc1 (configuration not stated)",
    "assigned-class": "active"
  },
  {
    "molecule": "COc1cccc(C2c3cc4c(cc3OC(NNc3ccccc3)C2C)OCO4)c1O (configuration not stated)",
    "assigned-class": "active"
  },
  {
    "molecule": "CCN(CC)C(C)(C)C(=O)/C=C/c1ccc(Cl)cc1",
    "assigned-class": "active"
  }
]
